target: OR8/OR7 (Anopheles gambiae, UniProt Q7PUT5+Q7QCC7); experiment: Ca2+-imaging of stable HEK293T cell line OR8/OR7; type: cell-based; conditions: HEK-293T; compound applied at 4 μM; read-out: Percent Inhibition OR8 OR7
Sequence (Q7QCC7 whole entry): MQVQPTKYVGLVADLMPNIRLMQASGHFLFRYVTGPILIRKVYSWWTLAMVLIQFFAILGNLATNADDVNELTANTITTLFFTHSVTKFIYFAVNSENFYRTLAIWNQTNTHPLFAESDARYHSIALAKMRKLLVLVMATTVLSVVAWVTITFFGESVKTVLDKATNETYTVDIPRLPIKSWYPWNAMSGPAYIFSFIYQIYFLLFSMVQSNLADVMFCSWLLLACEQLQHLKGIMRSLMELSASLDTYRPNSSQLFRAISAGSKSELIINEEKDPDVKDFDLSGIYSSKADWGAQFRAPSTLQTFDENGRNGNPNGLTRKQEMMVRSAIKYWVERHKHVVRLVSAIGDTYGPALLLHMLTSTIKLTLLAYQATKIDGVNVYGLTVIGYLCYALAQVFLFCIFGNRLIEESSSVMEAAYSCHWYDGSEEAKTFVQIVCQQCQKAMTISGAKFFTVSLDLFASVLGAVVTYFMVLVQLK
Sequence (Q7PUT5 entry or part of it): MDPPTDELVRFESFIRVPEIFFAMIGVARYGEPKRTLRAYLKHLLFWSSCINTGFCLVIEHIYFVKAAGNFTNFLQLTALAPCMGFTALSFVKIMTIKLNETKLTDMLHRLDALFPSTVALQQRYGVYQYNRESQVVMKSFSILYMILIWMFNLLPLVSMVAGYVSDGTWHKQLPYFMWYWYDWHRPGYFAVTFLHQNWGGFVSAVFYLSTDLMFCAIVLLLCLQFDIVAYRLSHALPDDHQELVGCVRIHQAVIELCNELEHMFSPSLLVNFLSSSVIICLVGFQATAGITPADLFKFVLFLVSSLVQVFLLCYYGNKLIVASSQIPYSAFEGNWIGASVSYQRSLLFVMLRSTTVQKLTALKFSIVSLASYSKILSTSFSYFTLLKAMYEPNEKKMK
property-label: inhibition at 4 µM

The following molecules have reported results that may help.
- molecule: "COCCNC(=O)c1ccc(CSc2nnc(-c3ccc(C)cc3)n2-c2ccccc2F)cc1 [RU-0051652]"
  inhibition at 4 µM: "< 25%"
- molecule: "CN(C)c1ccc(C(=O)N2CCOC(COCc3ccccc3F)C2)cc1 (stereo not drawn) [RU-0050325]"
  inhibition at 4 µM: "26 to 50%"
- molecule: "COc1cccc(NC(=O)CCC2CCN(C(=O)CSc3ccccc3)CC2)c1 [RU-0032474]"
  inhibition at 4 µM: "< 25%"
- molecule: "c1ccc(CNc2nc(NCc3ccco3)nc(N3CCOCC3)n2)cc1 [RU-0020050]"
  inhibition at 4 µM: "> 75%"
- molecule: "O=C(c1c(F)c(F)cc(F)c1F)N1CCOC(Cc2ccccc2)C1 (stereo not drawn) [RU-0050393]"
  inhibition at 4 µM: "26 to 50%"

Quick one: give me inhibition at 4 µM for each item below, same order please.
1. COCCN(Cc1nccn1Cc1c(F)cccc1Cl)C(=O)CCc1ccccc1 [RU-0058550]
2. CC(C)CN(Cc1nccn1Cc1ccc(Cl)cc1Cl)C(=O)c1ccccc1F [RU-0055322]
3. COc1ccc(OCC(=O)N2CCOC(Cc3ccccc3)C2)cc1 (stereo not drawn) [RU-0050384]
4. CCOCCCN(CC(=O)N(Cc1ccc2c(c1)OCO2)Cc1sccc1C)C(=O)NC(C)(C)C [RU-0052340]

Outgoing:
1. < 25%
2. < 25%
3. < 25%
4. < 25%

---

Molecular target: Or47a/Or83b (Drosophila melanogaster, UniProt P81921+Q9VNB5)
Construct: Full-length cDNAs for mosquito (Anopheles gambiae) odorant receptor (OR1, OR2, OR7, OR8, OR28), and fly (Drosophila melanogaster) odorant receptor (Or47a, Or83b); expressed in transfected cells
Sequence (P81921 1-385): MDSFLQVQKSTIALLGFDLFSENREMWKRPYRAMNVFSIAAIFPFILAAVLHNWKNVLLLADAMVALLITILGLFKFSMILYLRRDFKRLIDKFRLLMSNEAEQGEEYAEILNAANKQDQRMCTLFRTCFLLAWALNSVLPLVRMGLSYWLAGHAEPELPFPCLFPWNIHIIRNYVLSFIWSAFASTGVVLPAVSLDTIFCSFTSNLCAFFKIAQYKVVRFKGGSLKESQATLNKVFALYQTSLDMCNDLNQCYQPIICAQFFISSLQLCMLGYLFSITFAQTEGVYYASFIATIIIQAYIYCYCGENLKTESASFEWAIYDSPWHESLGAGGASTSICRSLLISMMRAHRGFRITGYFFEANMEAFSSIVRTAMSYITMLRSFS
Sequence (Q9VNB5 1-486): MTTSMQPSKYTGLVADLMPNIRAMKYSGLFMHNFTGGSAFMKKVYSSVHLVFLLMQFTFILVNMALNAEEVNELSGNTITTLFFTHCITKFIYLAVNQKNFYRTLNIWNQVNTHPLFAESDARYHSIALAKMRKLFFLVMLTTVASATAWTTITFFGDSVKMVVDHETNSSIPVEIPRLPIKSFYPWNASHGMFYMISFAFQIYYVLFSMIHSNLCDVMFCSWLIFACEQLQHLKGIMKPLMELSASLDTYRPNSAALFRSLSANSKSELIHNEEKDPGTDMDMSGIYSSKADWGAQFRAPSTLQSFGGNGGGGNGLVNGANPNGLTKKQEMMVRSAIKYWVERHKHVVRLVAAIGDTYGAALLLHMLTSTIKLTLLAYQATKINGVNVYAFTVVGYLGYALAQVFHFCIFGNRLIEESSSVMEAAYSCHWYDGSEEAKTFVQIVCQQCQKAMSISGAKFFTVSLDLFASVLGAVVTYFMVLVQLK
Assay: Ca2+-imaging of stable Flip-In T-Rex cell line Or47a/Or83b
Assay type: cell-based
Details: ligand pentyl acetate 30 μM; read-out: IC50 OR47a OR83b
pIC50: −log10 of the molar value.
property-label: pIC50

The following molecules have reported results that may help.
- molecule: "O=C(C1CCCC1)N(Cc1nccn1CCc1c(F)cccc1Cl)C1CC1"
  readout-value: "> 5.70"
- molecule: "CCNc1nc(NCC)nc(SC)n1"
  readout-value: "< 4.70"
- molecule: "O=C(c1nccn1Cc1c(F)cccc1Cl)N(CC1CCCC1)C1CC1"
  readout-value: "> 5.70"

Quick one: give me pIC50 for each item below, same order please.
1. CCNc1nc(NC(C)C)nc(SC)n1
2. CCNc1nc(Cl)nc(NC(C)C)n1
3. CN(Cc1nccn1Cc1c(F)cccc1Cl)C(=O)C1CCCC1
4. Fc1cccc(Cl)c1Cn1ccnc1CN(CC1CCCC1)C1CC1
5. CC(C)Nc1nc(Cl)nc(NC(C)C)n1

Outgoing:
["4.70 to 5.70", "< 4.70", "4.30 to 4.70", "< 4.70", "< 4.70"]

Quick one: give me pIC50 for each item below, same order please.
1. CCN(CC)C(=O)c1cccc(C)c1 [DEET, N,N-diethyl-m-toluamide, reference compound]
2. C=CCN(Cc1nccn1Cc1cccc(F)c1)C(=O)c1ccccc1F

Outgoing:
["< 4.30", "< 4.70"]

Incoming: Please tell me the measured pIC50 for CSc1nc(NC(C)C)nc(NC(C)C)n1 ; system: Or47a/Or83b (Drosophila melanogaster, UniProt P81921+Q9VNB5).
Outgoing: < 4.70

Source of measurements: patent US20130324522A1
